# target entity: gp120 of viral strain SF162 (HIV, strain SF162, UniProt P19550 32-502)
# method: cell-based or functional assay
*1 amine or outer side, *2 acyl side, *3 side chain or, on linkers, in order; H or OH if unused. [ ]: non-standard residue; d: D form. U1 = 4-cyclohexylmethoxy-L-phenylalanine, O=C([C@H](Cc1ccc(OCC2CCCCC2)cc1)N[*:1])[*:2]; Bip = N[C@@H](Cc1ccc(-c2ccccc2)cc1)C(=O)O; Tpa = thiopropionic acid
The binders listed here are annotated with their EC50 (antiviral activity, TZM-bl cells, luciferase).
endpoint: EC50 (antiviral activity, TZM-bl cells, luciferase) (nM)

binder: mCD4.1-PS1 (N-terminal gamma-aminobutyric acid (gammaAbu) acylated with 3-thiopropionyl (from SATP); all six Tyr are sulfotyrosine (YSO3); N-terminal Tpa (thiopropionic acid); Bip at position 23; C-terminal …; Lys5 N-epsilon carries the PEO2-maleimide linker bound to the thiol of the PS1 chain) peptide 1: NLHKCQLRCSSLGLLGRCAGSFCACV peptide 2: SYDYSYDYSYDYS
experimental value: 0.11
--
binder: Tpa-NLHFCQLRCKSLGLLGRCA[dP]T[U1]CACV-NH2 (disulfide (positions not given here)) [M48U1]
experimental value: 1
--
binder: mCD4.3-PS1 (not fully specified; N-terminal gamma-aminobutyric acid (gammaAbu) acylated with 3-thiopropionyl (from SATP); all six Tyr are sulfotyrosine (YSO3); N-terminal Tpa; D-proline at position 21; U1 (4-cyclohexylmethoxy-L-phenylalanine) at position 23; C-terminal amide; Lys5 N-epsilon carries the PEO2-maleimide linker bound to the thiol of the PS1 chain) peptide 1: NLHKCQLRCRSLGLLGRCAPTFCACV peptide 2: SYDYSYDYSYDYS
experimental value: 0.008
--
binder: M48U1-PS1 (not fully specified; N-terminal gamma-aminobutyric acid (gammaAbu) acylated with 3-thiopropionyl (from SATP); all six Tyr are sulfotyrosine (YSO3); N-terminal Tpa; D-proline at position 21; U1 (4-cyclohexylmethoxy-L-phenylalanine) at position 23; C-terminal amide; Lys11 N-epsilon carries the PEO2-maleimide linker bound to the thiol of the PS1 chain) peptide 1: NLHFCQLRCKSLGLLGRCAPTFCACV peptide 2: SYDYSYDYSYDYS
experimental value: 0.05
--
binder: Tpa-NLHKCQLRCSSLGLLGRCAGS[Bip]CACV-NH2 (disulfide (positions not given here); also: three disulphide bridges, pairing not given here) [mCD4.1]
experimental value: 130
